Provenance of the data: patent US10239849B2

TGT: glutathione-S-transferase (GST) tagged LXRbeta LBD (ligand binding domain) (Homo sapiens, UniProt P55055)
Sequence (P55055 222-460 limits assumed): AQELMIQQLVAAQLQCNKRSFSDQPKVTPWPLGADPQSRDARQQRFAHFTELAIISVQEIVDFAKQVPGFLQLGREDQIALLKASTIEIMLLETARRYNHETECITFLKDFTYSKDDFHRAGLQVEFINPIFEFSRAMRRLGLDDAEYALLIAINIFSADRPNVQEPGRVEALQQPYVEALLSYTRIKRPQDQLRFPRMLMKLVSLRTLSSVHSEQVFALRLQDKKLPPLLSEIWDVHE
ASSAY OVERVIEW: LanthaScreen TR-FRET Liver X Receptor Coactivator Assay, LXR beta-LBD
PROTOCOL CONDITIONS: potency (Inflection Point) of co-activator recruitment, TR-FRET; read-out: LXR beta IP
Response field label takes yes when EC50 is strictly below 0.4 µM and no in all other cases.

1. CC(C)(C)OC(=O)N1CCN(c2ncc(-c3ccc(C(=O)N4CCCC4)c(Cl)c3)cc2C#N)CC1	yes
2. CN(C)C(=O)c1ccc(-c2cnc(N3CCN(C(=O)OC(C)(C)C)CC3)c(C#N)c2)cc1C(F)(F)F	no
3. CN(C)C(=O)c1ccc(-c2cnc(N3CCN(S(=O)(=O)Cc4ccccc4F)CC3)c(C#N)c2)cc1Cl	yes
4. CN(C)C(=O)c1ccc(-c2ccc(N3CCN(C(=O)c4c(F)cccc4F)CC3)cc2)cc1Cl	no
5. CN(CCCO)C(=O)c1ccc(-c2cnc(N3CCN(C(=O)OC(C)(C)C)CC3)c(C#N)c2)cc1Cl	yes

Input line: Is the reported EC50 for CN(C)C(=O)c1ccc(-c2cnc(N3CCN(C(=O)C(O)(c4ccccc4)C(F)(F)F)CC3)c(C#N)c2)cc1Cl (centres unmarked) strictly below 0.4 µM?
Output line: yes

Input line: Repeat with CN(C)C(=O)c1ccc(-c2ccc(N3CCN(C(=O)c4c(F)cccc4C(F)(F)F)CC3)cc2)cc1Cl
Output line: no

Input line: Also, CN(C)C(=O)c1ccc(-c2cnc(N3C4CCC3C3CCC4N3C(=O)OC(C)(C)C)c(C#N)c2)cc1Cl please.
Output line: no
